Below are pIC50 values recorded for Human FXIa (Homo sapiens (Human), UniProt P03951).
pIC50: −log10 of the molar value.
TEST_READOUT: pIC50

1) COc1ccc(-n2cnc(C(F)(F)F)n2)c(CNC(=O)c2cnn(Cc3ccc4c(c3)CN(C(C)C)CC4)c2)c1F: 4.71
2) COCc1nn(Cc2ccc3c(c2)CCN(C2CC2)C3)cc1C(=O)NCc1c(-n2ccc(C#N)n2)ccc(OC)c1F: < 4.40
3) COCc1nn(Cc2ccc3c(c2)CCN(C(C)C)C3)cc1C(=O)NCc1c(-n2cnc(C(F)F)n2)ccc(OC)c1F: < 4.40
4) COCc1nn(Cc2ccc3c(c2)CNCC32CC2)cc1C(=O)NCc1c(-n2cc(C)nn2)ccc(OC)c1F: < 4.40
5) COCc1nn(Cc2ccc3c(c2)CN(C)CC3)cc1C(=O)NCc1c(-n2cnc(C(F)F)n2)ccc(OC)c1Cl: < 4.40
6) COc1ccc(-n2cc(C)nn2)c(CNC(=O)c2cn(Cc3cc4n(n3)C3(CC3)CN(C)C4)nc2C(F)F)c1F: 4.74
7) COCc1nn(Cc2ccc3c(c2)CN(C)CC3)cc1C(=O)NCc1c(-n2ccc(C3CC3)n2)ccc(OC)c1F: < 4.40
